# credit: ChEMBL document CHEMBL1201862

- Tested on: TK-10
- assay_protocol: NCI tumour cell line growth inhibition, 48 h
Calls of active or inactive are those of the source. Cut-off read from the data, not from the text of the source: active = GI50 up to about 1.1 µM and inactive = higher.
Reported GI50 values for a set of compounds

Query: # lookup: GI50 of N=C(N)N/N=C/c1ccc(O)c(C(=O)O)c1
Reply: > 100 µM (inactive)

Query: // lookup GI50 for Cc1[nH]c2ccccc2c1C1=CC(=O)N(c2ccccc2)C1=O
Reply: 11.1 µM (inactive)

Query: Query (compound): O=C(CC(C(=O)c1cccs1)c1ccc2c(c1)OCO2)c1ccc(Br)cc1 (stereo unspecified) ; field requested: GI50
Reply: > 100 µM (inactive)

Query: Entry under review: CC(/C=C/C(=O)c1sc(C(N)=S)nc1C)=C\c1ccccc1 . Reported GI50?
Reply: > 100 µM (inactive)

Query: Query (compound): C=C(CN)CO[Si](C)(C)C(C)(C)C ; field requested: GI50
Reply: 77.1 µM (inactive)

Query: Using the record for CN(C)c1ccc(/C=N/NC(=O)c2cnc3ccccc3c2)cc1 , report its GI50.
Reply: 26.3 µM (inactive)

====

- Tested on: SK-MEL-2
- assay_protocol: NCI tumour cell line growth inhibition, 48 h
Activity calls are given as the source filed them. Cut-off read from the data, not from the text of the source: active = GI50 up to about 1.1 µM and inactive = higher.
Answer with one of the outcomes given here: active, inactive

Illustrative cases are given below, each with its answer.
COC(=O)C1([C@@H]2C[C@@H](O)[C@]3(C)CC/C=C(\C)CCC[C@H](C)[C@H](O)[C@@H]2O3)CC1 = inactive
CC[n+]1c(/C=C/c2ccc(N(CCCl)CCCl)cc2)ccc2cc(Br)ccc21 = active
CNC(=S)N/N=C/c1cccc(C)n1 = inactive

Query: Outcome? CCOC(=O)C(Cc1ccccc1)NC(=O)c1ccc(/N=N/N(C)C)cc1 (stereo not given)
Reply: inactive

Query: Short answer needed: outcome of this test for O=C1Cc2c([nH]c3ccccc23)-c2cc(Br)ccc2N1 ?
Reply: inactive

Query: Short answer needed: outcome of this test for O=NN1C(c2ccccc2)CCCC1c1ccccc1 (stereo not given) ?
Reply: inactive

Query: What is the recorded call for this compound in the test? CCOc1ccc(NC(=O)/C(=N\N)C(C(=O)OC)c2nc3ccc(Cl)cc3nc2O)cc1 (stereo not given)
Reply: inactive

Query: Which outcome was entered for the compound O=C(O)c1ccc([C@@H]2C(=O)N(O)[C@@H]3C=CC[C@@H]32)cc1 in this test?
Reply: inactive

Query: Dear colleague, could you share the recorded outcome for N#CC1(C#N)C(=O)c2ccncc2C1=O when you have a moment?
Reply: inactive

Query: Which outcome was entered for the compound CN1CCN(/C(N)=C(\C#N)C(=O)Nc2ccccc2)CC1 in this test?
Reply: inactive

====

- Tested on: NCI/ADR-RES
- assay_protocol: NCI tumour cell line growth inhibition, 48 h
Activity calls are given as the source filed them. No stated cut-off is given here; in the data, active = GI50 up to about 1.1 µM and inactive = higher.
Outcome (select one): active, inactive

Before answering, review these 8 worked examples.
CN1CCN(/C(N)=C(\C#N)C(=O)Nc2ccccc2)CC1 = inactive
CNCCCNC1(c2cc3ccccc3s2)CCCCC1 = inactive
CC1=CC(C)(C)[C@H]2O[C@@]3(O)C[C@]4(C)[C@H]5C[C@@](C(C)C)(O[C@H]4c4ccoc4)O[C@H]4[C@]5(C3)O[C@@]1(O)[C@]24O = inactive
COc1ccc(S(=O)(=O)Nc2ccc(-c3csc(N4C(=O)/C(=C/C=C\c5ccccc5)N=C4c4ccccc4)n3)cc2)cc1Cl = inactive
COc1cc(CNc2nc3ccccc3nc2C(=O)O)cc(OC)c1OC = inactive
CN(C)CCn1c(=O)nc2c3c(c([N+](=O)[O-])ccc31)Nc1ccc(O)cc1-2 = inactive
CNC1C(O)CC(OC2C/C=C(\C)C/C(C)=C/C=C/CCC(C)CNC(=O)/C=C/C=C/C2C)OC1C (centres undefined) = active
COC(=O)C1=C(O)C(C(=O)OC)[C@@]2(O)[C@@H](C(=O)OC)C(c3ccc(OC(=O)/C(=C/c4ccc(Cl)cc4)c4ccc(Cl)cc4)cc3)C[C@@H]1[C@@H]2C(=O)OC (some centres undefined) = inactive

Query: // outcome(item) with item = COc1c(OC)c(OC)c(C(=O)/C=C/c2ccccc2)c(OC)c1OC
Reply: inactive
